Tested Target: T1, human IL-1α (human, UniProt P01583 113-271)
T1 sequence (looked up): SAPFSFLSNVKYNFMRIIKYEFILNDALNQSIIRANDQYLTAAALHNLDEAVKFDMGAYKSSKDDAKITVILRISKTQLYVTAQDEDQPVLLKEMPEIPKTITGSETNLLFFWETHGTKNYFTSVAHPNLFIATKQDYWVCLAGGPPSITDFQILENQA
Measurement Description: cell-based or functional assay
Listing: Fab IL-1α ND10 of selected binders
The reply should contain only the number, in nM.

Reference set, count: 2
Binder | Fab IL-1α ND10 [nM]
Fab ABT1-96/ABT2-13 (Fab, V domains shown) V domain 1: EVQLLESGGGLVQPGGSLRLSCAASGFTFNQYNMFWVRQAPGKGLEWVSVISGSGRFTYADSVKGRFTISRDNSKNTLYLQMNSLRAEDTAVYYCAKGWWRRDPPFDYWGQGTLVTVSS V domain 2: EVQLLESGGGLVQPGGSLRLSCAASGFTFRDYVMYWARQAPGKGLEWVSRIDPMGSSTYYADSVKGRFTISRDNSKNTLYLQMNSLRAEDTAVYYCAKPEGNFDYWGQGTLVTVSS | 0.9
Fab ABT1-141/ABT2-65 (Fab, V domains shown) VH: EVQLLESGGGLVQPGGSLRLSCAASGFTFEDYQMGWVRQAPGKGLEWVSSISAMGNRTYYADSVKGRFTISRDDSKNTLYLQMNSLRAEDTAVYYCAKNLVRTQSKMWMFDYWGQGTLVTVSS VL: DIQMTQSPSSLSASVGDRVTITCRASQWIQKQLAWYQQKPGKAPKLLIYSSSYLQSGVPRFSGSGSGTDFTLTISSLQPEDFATYYCQQHLRVPFTFGQGTKVEIKR | 80

q: Would you kindly share the measured Fab IL-1α ND10 for Fab ABT1-6-23/ABT2-13 (Fab, V domains shown) V domain 1: EVQLLESGGGLVQPGGSLRLSCAASGFTFVRYDMAWVRQAPGKGLEWVSSIYKSGALTSYDSVKGRFTISRDNSKNTLYLQMNSLRAEDTAVYYCAKGWASFDYWGQGTLVTVSS V domain 2: EVQLLESGGGLVQPGGSLRLSCAASGFTFRDYVMYWARQAPGKGLEWVSRIDPMGSSTYYADSVKGRFTISRDNSKNTLYLQMNSLRAEDTAVYYCAKPEGNFDYWGQGTLVTVSS ?
a: 40
